So I've got a bunch of molecules here, and I need their TGI values.
- Tested on: M19-MEL melanoma
- TEST DESCRIPTION: NCI tumour cell line growth inhibition, 48 h

Worked cases, TGI given:
MOLECULE	TGI
Brc1ccc2c(c1)C1C(CO2)C(c2ccccc2)=NN1c1ccccc1 (centres undefined)	> 100 µM
CN(C)CC1(Cc2ccccc2)CCC(Cc2ccccc2)C1=O (centres undefined)	32 µM
COc1ccc(C2c3cc4c(cc3OC(O)(CO)C2C(=O)O)OCO4)cc1 (centres undefined) (tested in a mixture with another compound)	21.3 µM
C#C[C@H](CCCC)OC(=O)N[C@H](C)c1ccccc1	93.8 µM
CSc1nc2c(c(O)c(C)c(=O)n2C2OCC(OC(C)=O)C(OC(C)=O)C2OC(C)=O)c(=O)n1C (centres undefined)	> 100 µM

The following molecules each have a reported value; give each one's TGI.
1. Cn1nc2ccc3nccc(N(CCO)CCO)c3c2n1
2. CCc1cccc(C(C)CC)c1NC(=O)C(=O)C(CC(=O)Nc1ccc(Cl)c(Cl)c1)C(=O)OC (centres undefined)
3. CCc1cccc(CC)c1NC(=O)C1=C(C)NC(C)=C(C(=O)Nc2c(CC)cccc2CC)C1c1ccc2c(c1)OCO2

Response line:
["> 100 µM", "> 100 µM", "30.9 µM"]

Given the molecule Cn1c2ccccc2c(=O)c2c([N+](=O)[O-])ccc(NCCN)c21 and test system M19-MEL melanoma, the measured TGI is 26 µM
